// reported ALT Donor 2 per item
- Tested on: human Liver-Chip (primary human hepatocytes)
- testDetails: Liver-Chip alanine transaminase (ALT) release in top channel effluent (ELISA)
- Assay type: cell-based
- conditionLabel: lowest concentration causing an increase in ALT protein; donor 2

Guide cases for ALT Donor 2, answers given:
Request: Fill in the blank: the reported ALT Donor 2 of O=c1[nH]c(=O)n([C@@H]2O[C@H](CO)[C@@H](O)[C@@H]2F)cc1I is ____.
Result: >300 multiples of the unbound human Cmax

Request: Fill in the blank: the reported ALT Donor 2 of Cc1cc2c(cc1CC(=O)c1sccc1S(=O)(=O)Nc1onc(C)c1Cl)OCO2 is ____.
Result: 300 multiples of the unbound human Cmax

Request: Fill in the blank: the reported ALT Donor 2 of CCc1ccc(CCOc2ccc(CC3SC(=O)NC3=O)cc2)nc1 (stereo not drawn) is ____.
Result: >300 multiples of the unbound human Cmax

Request: Fill in the blank: the reported ALT Donor 2 of N[C@@H]1[C@H]2CN(c3nc4c(cc3F)c(=O)c(C(=O)O)cn4-c3ccc(F)cc3F)C[C@@H]12 is ____.
Result: 100 multiples of the unbound human Cmax

New cases:
Request: Fill in the blank: the reported ALT Donor 2 of Cc1c(C)c2c(c(C)c1O)CCC(C)(COc1ccc(CC3SC(=O)NC3=O)cc1)O2 (stereo not drawn) is ____.
Result: 300 multiples of the unbound human Cmax

Request: Fill in the blank: the reported ALT Donor 2 of C[C@H]1COc2c(N3CCN(C)CC3)c(F)cc3c(=O)c(C(=O)O)cn1c23 is ____.
Result: >45 multiples of the unbound human Cmax

Request: Fill in the blank: the reported ALT Donor 2 of Cc1cc2c(s1)Nc1ccccc1N=C2N1CCN(C)CC1 is ____.
Result: >300 multiples of the unbound human Cmax

Request: Fill in the blank: the reported ALT Donor 2 of Cc1ccc(C(=O)c2cc(O)c(O)c([N+](=O)[O-])c2)cc1 is ____.
Result: 30 multiples of the unbound human Cmax

Values were extracted from paper PMC9727064.
